Listed here: compounds with reported GI50 for NCI-H23 lung.

COc1cc(C#N)cc(OC)c1OCCOCCOc1c(OC)cc(C#N)cc1OC; > 100 µM
COc1ccc(N(CC(=O)NCCC[Te]c2ccccc2)C(=O)CCSC2=C(C)C(=O)c3ccccc3C2=O)cc1; 0.623 µM
CCOC(=O)c1c(-c2ccccc2)[n+](=O)c2ccc(Cl)cc2n1[O-]; 11.2 µM
Cc1ccc(S(=O)(=O)/N=c2\ssc(Nc3ccccc3)c2Cl)cc1; 11 µM
C#CCN=C(N/N=C/c1ccc([N+](=O)[O-])o1)NS(=O)(=O)c1cc(C)c(Cl)cc1SCC(N)=O; 18.5 µM

Kindly note: NCI-H23 lung, O=C(Nc1n[nH]c2nc(-c3ccco3)ccc12)C1CC1 , GI50 value reported: > 25 µM

Kindly note: NCI-H23 lung, N.N.N.N.N.N.[I-].[Os] , GI50 value reported: > 100 µM

Kindly note: NCI-H23 lung, COc1cc2ccc3c4c(OC)cc(OC)c(OC)c4c(=O)n(C)c3c2cc1OC , GI50 value reported: 2.09 µM

Kindly note: NCI-H23 lung, COc1ccc(-c2nn(-c3cccc(NC(=O)Nc4ccc(Cl)c(C(F)(F)F)c4)c3)cc2-c2ccncc2)cc1Cl , GI50 value reported: 3.01 µM

Kindly note: NCI-H23 lung, O=C(O)C1NCCc2c1[nH]c1ccccc21 (stereo not given) , GI50 value reported: > 100 µM

====

System: UACC-62 melanoma
Test: NCI tumour cell line growth inhibition, 48 h
// reported TGI for each item listed
Provide only the numeric value, understood in µM.

CN(CCCNC(=O)c1cn(C)c2c1ccc1cc(Cl)c(Cl)cc12)CCCNC(=O)c1cn(C)c2c1ccc1cc(Cl)c(Cl)cc12; 31.7
NCCNc1nc(N2CCCC2)c2nc(Cl)c(NCc3ccccc3)nc2n1; 3.19
CC(Sc1ccccc1)C(CO)(CO)[N+](=O)[O-] (stereo not given); 29.9

Kindly note: UACC-62 melanoma, ClCc1ccc(-c2ccc(Cn3cnc4c(Cl)nc(Cl)nc43)cc2)cc1 , TGI value reported: 6.35

Kindly note: UACC-62 melanoma, c1cc(OCCN2CCCCCC2)ccc1CNc1ccc2nc(CCC3CCCCC3)[nH]c2c1 , TGI value reported: 3.35

====

// reported GI50 for each item listed
System: SK-OV-3 ovarian
Assay: NCI tumour cell line growth inhibition, 48 h

Below are worked cases with known answers.
ClCc1ccc(-c2ccc(Cn3cnc4c(Cl)nc(Cl)nc43)cc2)cc1; 10.6 µM
Cn1cccc1-c1cc(-c2cccs2)[nH]c(=O)c1C#N; > 100 µM
COc1ccc(N(CC(=O)NCCC[Te]c2ccccc2)C(=O)CCSC2=C(C)C(=O)c3ccccc3C2=O)cc1; 2.14 µM
Cc1n[nH]c(=S)n1/N=C/c1ccc(F)c(Oc2ccccc2)c1; > 100 µM
CCOC(=O)c1ccc(N(CCOS(C)(=O)=O)CCOS(C)(=O)=O)cc1C; 33.6 µM
C=C1C(=O)O[C@H]2[C@H]1CC/C(COC(=O)CCCCCCCCC(=O)OC/C1=C/CC[C@@]3(C)O[C@H]3[C@H]3OC(=O)C(=C)[C@@H]3CC1)=C\CC[C@@]1(C)O[C@@H]21; 12 µM
O=C(O)c1ccc2c(c1Nc1ccccc1)C(=O)c1ccccc1C2=O; 34.2 µM
NC1=C(Cl)C(=O)c2ccc(S(N)(=O)=O)cc2C1=O; 1.67 µM
O=C1/C(=C\C(Cl)=C/c2ccc([N+](=O)[O-])cc2)SC(=S)N1CCc1ccc(O)cc1; 2.59 µM
O=C(Nc1n[nH]c2nc(-c3ccco3)ccc12)C1CC1; > 25 µM

Then this molecule:
Record summary for Cc1cccc2c(N=Nc3ccc(S(N)(=O)=O)cc3)c(O)[nH]c12 : reported GI50 = > 25 µM
